Here the recorded reverse-splicing fitness is given for each entry.
B1: Azoarcus group I ribozyme (parent)
chain: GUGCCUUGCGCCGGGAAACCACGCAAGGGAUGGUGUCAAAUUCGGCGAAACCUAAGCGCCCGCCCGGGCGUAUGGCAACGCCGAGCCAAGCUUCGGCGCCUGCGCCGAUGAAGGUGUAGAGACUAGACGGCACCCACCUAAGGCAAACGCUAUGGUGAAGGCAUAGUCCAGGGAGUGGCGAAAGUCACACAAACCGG

variants of: B1; test: reverse-splicing fitness (ratio to wild type); higher = more active; in vitro selection; Mg2+ level not given

- VARIANT DESIGNATION: "C82A A111C A120U A145C C150G C169U U176C"
  reverse-splicing fitness: 0.00347
- VARIANT DESIGNATION: "C82U A145C C150U C169U"
  reverse-splicing fitness: 0.00874
- VARIANT DESIGNATION: "C82U A111G A120U A145C C150U C169G U176C"
  reverse-splicing fitness: 0.00203
- VARIANT DESIGNATION: "A111U A120G A145C C169A U176A"
  reverse-splicing fitness: 0.0217
- VARIANT DESIGNATION: "C82A A111C A120G A145C C150G C169A U176A"
  reverse-splicing fitness: 0.00786
- VARIANT DESIGNATION: "A111G A120U A145G C150G U176A"
  reverse-splicing fitness: 0.00779
- VARIANT DESIGNATION: "C82G A111U A120C A145C C150U C169G U176A"
  reverse-splicing fitness: 0.0279
- VARIANT DESIGNATION: "C82U A120C A145C C169U U176G"
  reverse-splicing fitness: 0.00368
- VARIANT DESIGNATION: "C82U A111G A120C A145C C150A U176C"
  reverse-splicing fitness: 0.00767
- VARIANT DESIGNATION: "C82A A111U A145C C150U"
  reverse-splicing fitness: 0.0537
- VARIANT DESIGNATION: "C82A A111G A120U A145U C150G U176A"
  reverse-splicing fitness: 0.0037
- VARIANT DESIGNATION: "C82U A111G A120U U176G"
  reverse-splicing fitness: 0.00489
- VARIANT DESIGNATION: "C82A A111G A120U A145G C150G U176C"
  reverse-splicing fitness: 0.00835
- VARIANT DESIGNATION: "C82U A111U A120C C150U C169U U176C"
  reverse-splicing fitness: 0.0157
- VARIANT DESIGNATION: "A120G A145U C150G C169U"
  reverse-splicing fitness: 0.0748
- VARIANT DESIGNATION: "A111C A120U A145G C150U C169G U176A"
  reverse-splicing fitness: 0.0074
- VARIANT DESIGNATION: "A111C C150A C169U U176C"
  reverse-splicing fitness: 0.0184
- VARIANT DESIGNATION: "A111U A120U A145U C150U C169G"
  reverse-splicing fitness: 0.0304
- VARIANT DESIGNATION: "C82G A111U A145C C150G"
  reverse-splicing fitness: 0.0354
- VARIANT DESIGNATION: "C82U A111G A120G A145U C150U C169A U176C"
  reverse-splicing fitness: 0.00928
- VARIANT DESIGNATION: "C82G A111U A120G A145U C150A C169A U176G"
  reverse-splicing fitness: 0.00527
- VARIANT DESIGNATION: "C82G A111U A120C A145G C150A C169U U176A"
  reverse-splicing fitness: 0.0148
- VARIANT DESIGNATION: "C82U A111C C150A C169U U176G"
  reverse-splicing fitness: 0.00777
- VARIANT DESIGNATION: "C82G A120C A145C U176C"
  reverse-splicing fitness: 0.0842
- VARIANT DESIGNATION: "C82G A111G A120C A145C C150G C169A U176G"
  reverse-splicing fitness: 0.00627
- VARIANT DESIGNATION: "A111U A145U C150G C169U U176A"
  reverse-splicing fitness: 0.00897
- VARIANT DESIGNATION: "A120G A145U C150U U176G"
  reverse-splicing fitness: 0.0161
- VARIANT DESIGNATION: "A111C A120G A145U C169U U176A"
  reverse-splicing fitness: 0.042
- VARIANT DESIGNATION: "C82G A111C A145C C150A C169A U176C"
  reverse-splicing fitness: 0.00947
- VARIANT DESIGNATION: "A111U A120C A145C C169U"
  reverse-splicing fitness: 0.164
- VARIANT DESIGNATION: "C82U A120C A145C C150U C169A"
  reverse-splicing fitness: 0.00607
- VARIANT DESIGNATION: "C82A A111C A145G C150U U176C"
  reverse-splicing fitness: 0.086
- VARIANT DESIGNATION: "C82G A120U C150A C169A U176A"
  reverse-splicing fitness: 0.00432
- VARIANT DESIGNATION: "C82G A120U A145G C150A C169U"
  reverse-splicing fitness: 0.00376
- VARIANT DESIGNATION: "C82A A111U A120G C169G U176A"
  reverse-splicing fitness: 0.0219
- VARIANT DESIGNATION: "C82U A111G A145G C150U C169U"
  reverse-splicing fitness: 0.0111
- VARIANT DESIGNATION: "C82A A111C A120G A145G C150A C169A U176A"
  reverse-splicing fitness: 0.0181
- VARIANT DESIGNATION: "C82G A111U C150A U176G"
  reverse-splicing fitness: 0.0138
- VARIANT DESIGNATION: "C82A A111U A120U A145C C150A C169U U176A"
  reverse-splicing fitness: 0.00277
- VARIANT DESIGNATION: "C82G A145U C169A"
  reverse-splicing fitness: 0.00844
- VARIANT DESIGNATION: "A111C A120C A145C C169U"
  reverse-splicing fitness: 0.17
- VARIANT DESIGNATION: "C82U A111U A120U A145G C150U"
  reverse-splicing fitness: 0.022
- VARIANT DESIGNATION: "C82A A120G A145C C150A C169A U176G"
  reverse-splicing fitness: 0.00399
- VARIANT DESIGNATION: "C82A A111C A145G C150A C169A U176C"
  reverse-splicing fitness: 0.0191
- VARIANT DESIGNATION: "C82A A111C A145U C150U C169A U176C"
  reverse-splicing fitness: 0.0146
- VARIANT DESIGNATION: "C82U A111C A120C A145G C169U"
  reverse-splicing fitness: 0.0129
- VARIANT DESIGNATION: "C82U A111G A120U A145C C150G C169U U176C"
  reverse-splicing fitness: 0.00213
- VARIANT DESIGNATION: "C82A A111C A120G A145G C150G"
  reverse-splicing fitness: 0.00731
- VARIANT DESIGNATION: "C82U A111G A145G C169G U176G"
  reverse-splicing fitness: 0.00438
- VARIANT DESIGNATION: "A111U A120C C150U C169A U176G"
  reverse-splicing fitness: 0.00509
- VARIANT DESIGNATION: "C82A A111G A120C A145G C169U U176C"
  reverse-splicing fitness: 0.0146
- VARIANT DESIGNATION: "C82U A111C A120G A145C C150G U176C"
  reverse-splicing fitness: 0.0106
- VARIANT DESIGNATION: "A111U A120C C150G"
  reverse-splicing fitness: 0.0482
- VARIANT DESIGNATION: "A120C A145C C150A C169U U176C"
  reverse-splicing fitness: 0.032
- VARIANT DESIGNATION: "A111C A120U A145C C150A C169U U176C"
  reverse-splicing fitness: 0.00283
- VARIANT DESIGNATION: "C82U A111C A120G A145U C150G C169U U176G"
  reverse-splicing fitness: 0.00419
- VARIANT DESIGNATION: "C82G A145C C150G C169A"
  reverse-splicing fitness: 0.00875
- VARIANT DESIGNATION: "C82A A111U A120G C150A C169A U176A"
  reverse-splicing fitness: 0.0214
- VARIANT DESIGNATION: "C82U A111U C150U U176G"
  reverse-splicing fitness: 0.0154
- VARIANT DESIGNATION: "C82U A120U A145U C150A U176G"
  reverse-splicing fitness: 0.00379
- VARIANT DESIGNATION: "C82U A111C A145G C150G C169G U176C"
  reverse-splicing fitness: 0.0117
- VARIANT DESIGNATION: "C82U A111G A145G C150U C169U U176A"
  reverse-splicing fitness: 0.0132
- VARIANT DESIGNATION: "C82G A111U A120U A145G C150U C169G U176A"
  reverse-splicing fitness: 0.00833
- VARIANT DESIGNATION: "C82U A111U A145C C150G C169A U176G"
  reverse-splicing fitness: 0.006
- VARIANT DESIGNATION: "C82U A111G A120C A145C C169A"
  reverse-splicing fitness: 0.00548
- VARIANT DESIGNATION: "C82G A111G A120C C150G C169A U176A"
  reverse-splicing fitness: 0.0102
- VARIANT DESIGNATION: "C82U A111U A120C A145C"
  reverse-splicing fitness: 0.0238
- VARIANT DESIGNATION: "C82G A111C A120U A145G C150A C169U"
  reverse-splicing fitness: 0.00514
- VARIANT DESIGNATION: "C82A A145G C150U C169G U176A"
  reverse-splicing fitness: 0.0138
- VARIANT DESIGNATION: "C82G A120U A145G U176G"
  reverse-splicing fitness: 0.0134
- VARIANT DESIGNATION: "C82U A111U A120U A145U C150G C169U"
  reverse-splicing fitness: 0.00272
- VARIANT DESIGNATION: "C82A A111C A120C A145G C150U C169A"
  reverse-splicing fitness: 0.0108
- VARIANT DESIGNATION: "C82G A145U C150G C169A U176C"
  reverse-splicing fitness: 0.0105
- VARIANT DESIGNATION: "C82A A111C A120G A145U C169G"
  reverse-splicing fitness: 0.00868
- VARIANT DESIGNATION: "C82A A111C A120C A145G C150A C169A U176G"
  reverse-splicing fitness: 0.009
- VARIANT DESIGNATION: "C82A A111U A120C A145C C169U"
  reverse-splicing fitness: 0.0112
- VARIANT DESIGNATION: "C82A A111C A120G C169G U176C"
  reverse-splicing fitness: 0.0214
- VARIANT DESIGNATION: "C82A A111C A120C C150G C169U"
  reverse-splicing fitness: 0.0115
- VARIANT DESIGNATION: "A111C A145C C150U C169A"
  reverse-splicing fitness: 0.0114
- VARIANT DESIGNATION: "C82G A120U A145U C169U U176G"
  reverse-splicing fitness: 0.00148
- VARIANT DESIGNATION: "A111C A120C A145U C150U C169G U176A"
  reverse-splicing fitness: 0.0128
- VARIANT DESIGNATION: "C82A A111G A120U A145G C150U"
  reverse-splicing fitness: 0.0257
- VARIANT DESIGNATION: "C82A A111G A120C A145U C150G U176C"
  reverse-splicing fitness: 0.00993
- VARIANT DESIGNATION: "C82G A120C A145U C150A C169A U176G"
  reverse-splicing fitness: 0.00421
- VARIANT DESIGNATION: "C82A A120U C150G C169U U176A"
  reverse-splicing fitness: 0.00325
- VARIANT DESIGNATION: "A120U A145G C150U C169G U176A"
  reverse-splicing fitness: 0.0289
- VARIANT DESIGNATION: "C82A A111G A120U C169G U176G"
  reverse-splicing fitness: 0.00181
- VARIANT DESIGNATION: "C82U A111C C169G U176A"
  reverse-splicing fitness: 0.0181
- VARIANT DESIGNATION: "A120C A145C C150U C169G U176G"
  reverse-splicing fitness: 0.00381
- VARIANT DESIGNATION: "C82U A111U A120G A145G C150G C169A U176C"
  reverse-splicing fitness: 0.0113
- VARIANT DESIGNATION: "A120G A145G C150G"
  reverse-splicing fitness: 0.088
